assay-target: MLL1 complex (Homo sapiens, UniProt P61964)
procedure-summary: MLL1 HMT assay
condition-details: MLL1 HMT IC50, H3 peptide as substrate
pIC50: −log10 of the molar value.
parameter: pIC50

Enquiry: Look up MLL1 complex (Homo sapiens, UniProt P61964) data: pIC50 of Cc1nc(F)ccc1-c1cc(Cn2ccn(C)c2=N)cc(C(=O)NCc2ccc(Cl)c(Cl)c2)c1 [Compound C6] , then report it.
Return: ~7.70

----------
assay-target: WDR5 (Homo sapiens)
pKd: −log10 of the molar value.
parameter: pKd

Enquiry: Given `Cc1nc(F)ccc1-c1cc(Cn2ccn(C)c2=N)cc(C(=O)NCc2ccc(Cl)c(Cl)c2)c1` , report its pKd on WDR5 (Homo sapiens).
Return: ~10.00
